# Protocol Details: Pharmacokinetics in mice: plasma berberine exposure after oral administration
# Type: in vivo
# Setup Conditions: both sexes, Kun-Ming, mouse, 618 mg/kg pure berberine, read-out: Plasma berberine AUC0–4 h
Metric Name: AUC(0-t) (ng·h/mL)
The answer is to be given in ng·h/mL; state only the numeric part.

Task: Any idea what AUC(0-t) was measured for COc1ccc2cc3[n+](cc2c1OC)CCc1cc2c(cc1-3)OCO2 [pure berberine, berberine] ?
Result: 22.1

----------
# Protocol Details: Pharmacokinetics in mice: plasma berberine exposure after oral administration
# Type: in vivo
# Setup Conditions: both sexes, Kun-Ming, mouse, 206 mg/kg pure berberine, read-out: Plasma berberine AUC0–24 h
Metric Name: AUC(0-t) (ng·h/mL)
The answer is to be given in ng·h/mL; state only the numeric part.

Task: Any idea what AUC(0-t) was measured for COc1ccc2cc3[n+](cc2c1OC)CCc1cc2c(cc1-3)OCO2 ?
Result: 722
